- System: HeLa
- Assay Name: Cytotoxicity against human HeLa cells assessed as reduction in cell viability measured after 72 hrs by MTT assay
- Format: functional, cell-based
Observable: IC50 (µM)
Kindly provide the numeric value in µM only, without the unit symbol.

Previously resolved entries follow.
• CC(C(=O)NCCC[Se]C(F)(F)F)c1ccc(-c2ccccc2)c(F)c1 (centres undefined) = 14.9
• C[C@H](C(=O)NCCC[Se]C(F)(F)F)c1cccc(C(=O)c2ccccc2)c1 = 28.7
• CCc1cccc2c3c([nH]c12)C(CC)(CC(=O)NCCC[Se]C(F)(F)F)OCC3 (centres undefined) = 25.5
• CC1=C(CC(=O)NCCC[Se]C(F)(F)F)c2cc(F)ccc2/C1=C\c1ccc([S+](C)[O-])cc1 (centres undefined) = 19.4
• O=c1[nH]cc(F)c(=O)[nH]1 = 12.7
• CC(C)Cc1ccc(C(C)C(=O)NCCC[Se]C#N)cc1 (centres undefined) = 29.3
• COc1ccc2cc([C@H](C)C(=O)NCCC[Se]C#N)ccc2c1 = 35.7

Now look at this entry.
Return reported IC50; argument: "COc1ccc2c(c1)c(CC(=O)NCCC[Se]C#N)c(C)n2C(=O)c1ccc(Cl)cc1"
19.6

====

IC50 listing for selected molecules.
- Tested on: A549
- Assay Name: Cytotoxicity against human A549 cells assessed as reduction in cell viability measured after 24 hrs by MTT assay
- Type: functional, cell-based
- Test Settings: A549, 24 h
Write the value in µM as a bare number.

A selection of reference data follows.
- COc1ccc2cc([C@H](C)C(=O)NCCC[Se]C(F)(F)F)ccc2c1: 28.4
- CC(=O)Oc1ccccc1C(=O)NCCC[Se]C#N: 18.4
- N#C[Se]CCCNC(=O)c1ccccc1Nc1cccc(C(F)(F)F)c1: 26.1
- Cc1cccc(Nc2ccccc2C(=O)NCCC[Se]C(F)(F)F)c1C: 27.3
- CC(C(=O)NCCC[Se]C#N)c1ccc(-c2ccccc2)c(F)c1 (centres undefined): 23.5

What measured IC50 goes with "CC(=O)Oc1ccccc1C(=O)NCCC[Se]C(F)(F)F" ?
16.4

Record request: IC50 value, item "COc1ccc2c(c1)c(CC(=O)NCCC[Se]C(F)(F)F)c(C)n2C(=O)c1ccc(Cl)cc1"
18.3

====

- Tested on: HeLa
- Assay Name: Cytotoxicity against human HeLa cells assessed as reduction in cell viability measured after 48 hrs by MTT assay
- Type: functional, cell-based
Observable: IC50 (µM)
Field format: number, assumed µM, no unit text.

* COc1ccc2c(c1)c(CC(=O)NCCC[Se]C(F)(F)F)c(C)n2C(=O)c1ccc(Cl)cc1 | 21.4
* CC(=O)Oc1ccccc1C(=O)NCCC[Se]C(F)(F)F | 26.3
* O=c1[nH]cc(F)c(=O)[nH]1 | 15.5
* CC(=O)Oc1ccccc1C(=O)NCCC[Se]C#N | 28.4
* CCc1cccc2c3c([nH]c12)C(CC)(CC(=O)NCCC[Se]C#N)OCC3 (centres undefined) | 17.4
* CCc1cccc2c3c([nH]c12)C(CC)(CC(=O)NCCC[Se]C(F)(F)F)OCC3 (centres undefined) | 14.4
* N#C[Se]CCCNC(=O)c1ccccc1Nc1cccc(C(F)(F)F)c1 | 33.4

# evaluate next
I'd like to know its IC50. The compound in question is "COc1ccc2cc([C@H](C)C(=O)NCCC[Se]C#N)ccc2c1"
24.5

====

Recorded IC50 values for a group of molecules are listed next.
- Tested on: A549
- Assay Name: Cytotoxicity against human A549 cells assessed as reduction in cell viability measured after 24 hrs by MTT assay
- Format: functional, cell-based
- Test Settings: A549, 24 h
Give the quantity in µM, number only.

Previously resolved entries follow.
* CCc1cccc2c3c([nH]c12)C(CC)(CC(=O)NCCC[Se]C#N)OCC3 (stereo not given) | 28.4
* COc1ccc2c(c1)c(CC(=O)NCCC[Se]C#N)c(C)n2C(=O)c1ccc(Cl)cc1 | 28.5
* CC(C)Cc1ccc(C(C)C(=O)NCCC[Se]C(F)(F)F)cc1 (stereo not given) | 9.4

What value of IC50 has been recorded for this entry: "C[C@H](C(=O)NCCC[Se]C(F)(F)F)c1cccc(C(=O)c2ccccc2)c1"
13.1

====

- Tested on: SW480
- Assay Name: Cytotoxicity against human SW480 cells assessed as reduction in cell viability measured after 48 hrs by MTT assay
- Assay type: functional, cell-based
- Test Settings: SW480, 48 h
// classify(record): look up IC50 in ranges bottom range = under 8 µM, center range = from 8 µM up to 20 µM, top range = 20 µM and over

Please review the following examples before continuing.
• CC1=C(CC(=O)NCCC[Se]C(F)(F)F)c2cc(F)ccc2/C1=C\c1ccc([S+](C)[O-])cc1 (centres undefined) = center range
• Cc1cccc(Nc2ccccc2C(=O)NCCC[Se]C#N)c1C = center range
• COc1ccc2c(c1)c(CC(=O)NCCC[Se]C#N)c(C)n2C(=O)c1ccc(Cl)cc1 = center range
• CC1=C(CC(=O)NCCC[Se]C#N)c2cc(F)ccc2/C1=C\c1ccc([S+](C)[O-])cc1 (centres undefined) = center range

The entry to classify is "Cc1cccc(Nc2ccccc2C(=O)NCCC[Se]C(F)(F)F)c1C" ; which class holds it?
center range

Bin? "COc1ccc2c(c1)c(CC(=O)NCCC[Se]C(F)(F)F)c(C)n2C(=O)c1ccc(Cl)cc1"
center range

Please report the category associated with "O=C(NCCC[Se]C(F)(F)F)c1ccccc1Nc1cccc(C(F)(F)F)c1" , nothing else.
center range

====

- Test system: A549
- Assay Name: Cytotoxicity against human A549 cells assessed as reduction in cell viability measured after 24 hrs by MTT assay
- Format: functional, cell-based
- Test Settings: A549, 24 h
pIC50 values for the compounds below.
Please report pIC50 as the negative decimal logarithm of the molar concentration, giving only the number.

Reference set (3 entries):
* COc1ccc2cc([C@H](C)C(=O)NCCC[Se]C#N)ccc2c1 | 4.49
* O=c1[nH]cc(F)c(=O)[nH]1 | 4.60
* CC1=C(CC(=O)NCCC[Se]C#N)c2cc(F)ccc2/C1=C\c1ccc([S+](C)[O-])cc1 (stereo not given) | 4.94

Can you share its pIC50? I mean this compound: CC(C)Cc1ccc(C(C)C(=O)NCCC[Se]C#N)cc1 (stereo not given)
4.61

Query: pIC50; subject: CCc1cccc2c3c([nH]c12)C(CC)(CC(=O)NCCC[Se]C(F)(F)F)OCC3 (stereo not given)
4.71

Give its pIC50 value. Item: "Cc1cccc(Nc2ccccc2C(=O)NCCC[Se]C#N)c1C"
4.43

Quick one: pIC50 for "O=C(NCCC[Se]C(F)(F)F)c1ccccc1Nc1cccc(C(F)(F)F)c1" ?
4.74

Form field: reported pIC50 of "C[C@H](C(=O)NCCC[Se]C#N)c1cccc(C(=O)c2ccccc2)c1"
4.62

State the recorded pIC50 for this entry: CC(C(=O)NCCC[Se]C(F)(F)F)c1ccc(-c2ccccc2)c(F)c1 (stereo not given)
4.84

Reported pIC50 for CC1=C(CC(=O)NCCC[Se]C(F)(F)F)c2cc(F)ccc2/C1=C\c1ccc([S+](C)[O-])cc1 (stereo not given) : what is it?
5.03

====

- Tested on: MCF7
- Assay Name: Induction of apoptosis in human MCF7 cells assessed as down regulation of Bcl-2 expression at IC50 measured after 48 hrs by ELISA relative to control
- Assay type: functional
Calls of active or inactive are those of the source. The calls are words filed in the database; no cut-off is given here.
Observable: Activity

* CC(C)Cc1ccc(C(C)C(=O)NCCC[Se]C#N)cc1 (centres undefined) | Active
* CC(=O)Oc1ccccc1C(=O)NCCC[Se]C(F)(F)F | >50%
* CC(C)Cc1ccc(C(C)C(=O)NCCC[Se]C(F)(F)F)cc1 (centres undefined) | >50%
* CC(=O)Oc1ccccc1C(=O)NCCC[Se]C#N | Active

====

- Tested on: HeLa
- Assay Name: Cytotoxicity against human HeLa cells assessed as reduction in cell viability measured after 72 hrs by MTT assay
- Assay type: functional, cell-based
Entries are grouped by IC50 into these classes: label 0 (below 20 µM), label 1 (20 µM to below 30 µM), label 2 (30 µM or more)

* CCc1cccc2c3c([nH]c12)C(CC)(CC(=O)NCCC[Se]C#N)OCC3 (stereo not given) | label 1
* COc1ccc2c(c1)c(CC(=O)NCCC[Se]C(F)(F)F)c(C)n2C(=O)c1ccc(Cl)cc1 | label 0
* CC(=O)Oc1ccccc1C(=O)NCCC[Se]C(F)(F)F | label 0
* CC(C(=O)NCCC[Se]C#N)c1ccc(-c2ccccc2)c(F)c1 (stereo not given) | label 0
* CC(=O)Oc1ccccc1C(=O)NCCC[Se]C#N | label 0
* CC1=C(CC(=O)NCCC[Se]C#N)c2cc(F)ccc2/C1=C\c1ccc([S+](C)[O-])cc1 (stereo not given) | label 1
* N#C[Se]CCCNC(=O)c1ccccc1Nc1cccc(C(F)(F)F)c1 | label 2

Now consider a different compound.
Sort into band: "C[C@H](C(=O)NCCC[Se]C#N)c1cccc(C(=O)c2ccccc2)c1"
label 2
